Data origin: paper PMC5267519

Examples of compounds with documented Emax follow.
System: CYP3A4 mRNA
method-summary: Concentration-dependent CYP3A4 mRNA induction in HepatoCells
condition-context: Lot 3A HepatoCells; CYP3A4 mRNA fold increase; 3 consecutive days treatment; NI = no induction observed at tested concentration; quinidine: only observed maximum fold induction
Write the number in Fold without appending the unit.

Example entries and their recorded answers appear below.
COc1ccc2[nH]c([S+]([O-])Cc3ncc(C)c(OC)c3C)nc2c1 (stereo not shown) [Omeprazole] | 45
O=C1NC(=O)C(c2ccccc2)(c2ccccc2)N1 [Phenytoin] | 38
CCCN(CCC)S(=O)(=O)c1ccc(C(=O)O)cc1 [Probenecid] | 26
CCc1ccc(CCOc2ccc(CC3SC(=O)NC3=O)cc2)nc1 (stereo not shown) [Pioglitazone] | 31
NC(=O)N1c2ccccc2C=Cc2ccccc21 [Carbamazepine] | 10
CN(C/C=C/C#CC(C)(C)C)Cc1cccc2ccccc12 [Terbinafine] | 24

Please turn your attention to the following entry.
Answer with the recorded Emax for the compound listed here: O=C1C(CC[S+]([O-])c2ccccc2)C(=O)N(c2ccccc2)N1c1ccccc1 (stereo not shown) [Sulfinpyrazone]
53
